All figures here come from ChEMBL document CHEMBL1649401.

Answer each item with its documented inhibition.
# PROCEDURE DETAILS: Inhibition of amyloid beta (1 to 40) aggregation at 100 uM after 2 hrs by thioflavin T based fluorometric assay
Return type: number; implicit unit %.

Inquiry: Name the reported inhibition value associated with the molecule O=C1Nc2ccc(Br)cc2/C1=N/Nc1ccc(Cl)cc1
Reply text: 63

Inquiry: Next molecule up: O=C1Nc2ccc(O)cc2/C1=N/Nc1ccccc1
Reply text: 62

Inquiry: Same for O=C1Nc2ccccc2/C1=N/Nc1cccc(F)c1
Reply text: 52

Inquiry: Same thing, different molecule: COc1ccc2c(c1)/C(=N/Nc1cccc(Cl)c1)C(=O)N2
Reply text: 72

Inquiry: Similarly, COc1ccc2c(c1)/C(=N/Nc1cccc(C(C)(C)C)c1)C(=O)N2 ?
Reply text: 56

Inquiry: Param item: O=C1Nc2ccccc2/C1=N/Nc1ccc(OC(F)(F)F)cc1
Reply text: 57

Inquiry: Also COc1ccc2c(c1)/C(=N/Nc1ccc(OCc3ccccc3)cc1)C(=O)N2 ?
Reply text: 20

Inquiry: Can you handle COc1ccc2c(c1)/C(=N/Nc1ccc(C)cc1)C(=O)N2 next?
Reply text: 29

Inquiry: Also check O=C1Nc2cc(Cl)c(F)cc2/C1=N/Nc1ccc(Cl)cc1
Reply text: 28

Inquiry: What would you report for O=C1Nc2ccccc2/C1=N/Nc1cccc(Cl)c1 ?
Reply text: 39

Inquiry: For O=C1Nc2ccc([N+](=O)[O-])cc2/C1=N/Nc1ccccc1 then?
Reply text: 0

Inquiry: Now give it for COc1ccc2c(c1)/C(=N/Nc1ccc(Cl)cc1)C(=O)N2 too.
Reply text: 43

----------
Consider the following molecules; for each one, report its inhibition.
# PROCEDURE DETAILS: Inhibition of amyloid beta (1 to 40) aggregation at 100 uM after 2 hrs by thioflavin T based fluorometric assay
Numbers only here, please. The scale is %.

Inquiry: Tell me the measured inhibition of COc1cc2c(cc1OC)/C(=N/Nc1ccccc1)C(=O)N2 , please.
Reply text: 68

Inquiry: Now the molecule O=C1Nc2ccccc2/C1=N/Nc1ccc(Cl)cc1
Reply text: 24

Inquiry: Please answer likewise for O=C1Nc2ccc(O)cc2/C1=N/Nc1ccc(O)cc1
Reply text: 61

Inquiry: Could you do the same for O=C1Nc2ccccc2/C1=N/Nc1cccc([N+](=O)[O-])c1 , please?
Reply text: 29

Inquiry: Now try CC(C)c1ccc(N/N=C2\C(=O)Nc3ccccc32)cc1 .
Reply text: 64

Inquiry: Next: COc1cc2c(cc1OC)/C(=N/Nc1ccc(Cl)cc1)C(=O)N2
Reply text: 71
